Reference source for all entries: patent US10858359B2

# target-or-test-system: SHP2 (Homo sapiens (Human))
# Sequence (Q06124 whole entry): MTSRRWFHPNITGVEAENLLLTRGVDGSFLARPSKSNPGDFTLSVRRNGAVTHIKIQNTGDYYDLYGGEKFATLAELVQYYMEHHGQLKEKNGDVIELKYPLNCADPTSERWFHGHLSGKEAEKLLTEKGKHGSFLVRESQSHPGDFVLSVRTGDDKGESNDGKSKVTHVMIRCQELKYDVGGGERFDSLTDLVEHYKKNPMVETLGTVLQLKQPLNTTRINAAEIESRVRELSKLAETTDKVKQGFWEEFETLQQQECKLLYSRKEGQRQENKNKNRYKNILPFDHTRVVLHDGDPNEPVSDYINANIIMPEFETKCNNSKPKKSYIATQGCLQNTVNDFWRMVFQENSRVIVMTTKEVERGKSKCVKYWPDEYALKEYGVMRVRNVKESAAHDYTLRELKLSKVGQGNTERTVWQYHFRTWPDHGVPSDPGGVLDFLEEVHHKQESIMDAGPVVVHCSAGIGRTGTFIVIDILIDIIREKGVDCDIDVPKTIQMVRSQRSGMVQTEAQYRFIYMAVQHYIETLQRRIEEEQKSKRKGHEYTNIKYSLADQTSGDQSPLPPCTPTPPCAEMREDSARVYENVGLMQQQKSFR
# assay-info: Phosphatase assay (IC50), DiFMUP substrate
# condition-info: SHP2 0.5 nM activated with dPEG8 peptide; DiFMUP 12 μM; compounds 0.3 nM to 1 μM
assay-endpoint: pIC50
Please express pIC50 as -log10 of the molar concentration.

Observe how each entry below is paired with its result.
compound | target-or-test-system | pIC50
Nc1nc(N2CCC3(CC2)COC[C@H]3N)cnc1Sc1ccnc2c1C(F)(F)C(=O)N2 | SHP2 (Homo sapiens (Human)) | 7.52
Nc1nc(N2CCC3(CC2)COC[C@H]3N)cnc1Sc1cccc2[nH]cc(F)c12 | SHP2 (Homo sapiens (Human)) | 7.39
Nc1nc(N2CCC3(CC2)COC[C@H]3N)cnc1Sc1cccc2c1C(F)(F)C(=O)N2 | SHP2 (Homo sapiens (Human)) | 7.67

Proceeding to the next compound to report its pIC50.
Need pIC50 of Nc1nc(N2CCC3(CC2)CC2CC2C3N)cnc1Sc1ccnc(N)c1Cl (stereo not shown) , thanks.
8.08

---

# target-or-test-system: UniProt:Q06124
# assay-info: Phosphatase assay (single dose inhibition), DiFMUP substrate
# Format: biochemical
# condition-info: compound at 0.1 μM (100 nM); SHP2 0.5 nM activated with dPEG8 peptide; DiFMUP 12 μM; relative to DMSO control
Classify by measured inhibition at 0.1 µM: Satisfied if it is equal to or exceeds 40%, Not satisfied if it is smaller.

Exam item: decide whether the reported inhibition at 0.1 µM for `Nc1nc(N2CCC3(CC2)COC[C@H]3N)cnc1Sc1ccnc2[nH]ccc12` is at least 40%.
Not satisfied

Reported inhibition at 0.1 µM reaches at least 40% for Nc1nc(N2CCC3(CC2)C(=O)N2CCCC2C3N)cnc1Sc1ccnc(N)c1Cl (stereo not shown) ?
Not satisfied

In plain terms: is recorded inhibition at 0.1 µM at least 40% for `CN(C)C(=O)C(=O)c1ccc(C(=O)Nc2nccc(Sc3ncc(N4CCC(C)(N)CC4)nc3N)c2Cl)cc1` ?
Not satisfied

Check the entry `Nc1nc(N2CCC3(CC2)COC[C@H]3N)cnc1Sc1cccc2[nH]ccc12` : does inhibition at 0.1 µM equal or exceed 40%?
Satisfied

Test whether the molecule `CN(C)C(=O)C(=O)Nc1cccc(Sc2ncc(N3CCC(C)(N)CC3)nc2N)c1Cl` records inhibition at 0.1 µM of 40% or higher.
Satisfied

hey, is inhibition at 0.1 µM for this one >= 40%? `Nc1nc(N2CCC3(CC2)COC[C@H]3N)cnc1Sc1cccc2c1C(F)(F)C(=O)N2`
Satisfied

# check: inhibition at 0.1 µM of `Cc1ccc(C(=O)C(=O)Nc2cccc(Sc3ncc(N4CCC(C)(N)CC4)nc3N)c2Cl)cc1` is greater than or equal to 40%
Satisfied
